- Protocol Details: CREB reporter modulators without forskolin, primary screen, cell-based, PC12, CRE-LacZ reporter, unstimulated (AID 1145)
- Test Parameters: no forskolin, luminescence, 4.5 h, higher = more signal, called active from +8 up or from −8 down
Measurement Kind: z-score
Please respond with just the number, no unit label.

Q: Output measured z-score for this item: "CC(C)OC(=O)C=C1C[C@@H](c2ccccn2)O[C@@H](c2ccccn2)O1"
Ans: -0.0137

Q: Output measured z-score for this item: "CCCC[C@H]1OB(O)C[C@H]2C1=C(COC)C[C@H]1C(=O)N(C)C(=O)[C@H]12"
Ans: 0.76

Q: Output measured z-score for this item: CC(C)c1ccc(NN2C(C(O)c3ccc(B(O)O)cc3)C=CC3C(=O)N(c4ccccc4)C(=O)C32)cc1 (stereo not given)
Ans: 0.815

Q: Output measured z-score for this item: "O=C1c2ccccc2[C@](Cc2ccccc2I)(C(=O)NCCN2CCOCC2)[C@H](c2ccc(CO)cc2)N1Cc1ccccc1Cl"
Ans: -0.0512

Q: Output measured z-score for this item: "C=C[C@H](OC)[C@@H](OC(=O)Nc1ccc(OC)cc1)c1ccc(O)c(F)c1"
Ans: 1.24

Q: Output measured z-score for this item: "COCCOC(=O)N1C(=O)[C@@]2(c3cc(C#CCC(C(=O)OC)C(=O)OC)ccc31)[C@H](c1ccccc1OCCO)N1[C@H](c3ccccc3)[C@H](c3ccccc3)OC(=O)[C@H]1[C@@H]2C(=O)NC[C@H](O)c1ccccc1"
Ans: -0.195

Q: Output measured z-score for this item: "O=C1N[C@@H](Cc2ccccc2)C(=O)N2[C@@H]1C[C@@H](C(=O)O)[C@H]2c1cccc(OCCO)c1"
Ans: 0.692

Q: Output measured z-score for this item: CCCCCN1CC=CC23O[C@@H]4C=CCCOC(=O)C4[C@H]2C(=O)N(CCCCCO)[C@@H]3C1=O (stereo not given in full)
Ans: -0.895

Q: Output measured z-score for this item: "COC(=O)C(CC#Cc1ccc2c(c1)[C@]1(C(=O)N2)[C@H](C(=O)Nc2nc3ccccc3s2)[C@H]2C(=O)O[C@H](c3ccccc3)[C@H](c3ccccc3)N2[C@@H]1c1ccccc1OCCO)C(=O)OC"
Ans: 0.389

Q: Output measured z-score for this item: O=C(OCc1ccccc1)C1=CCC2c3[nH]c4ccccc4c3C(=O)C1N2S(=O)(=O)c1ccccc1[N+](=O)[O-] (stereo not given)
Ans: -0.0137

Q: Output measured z-score for this item: "CC(C)N1C(=O)[C@@]2(Cc3ccccc31)c1ccccc1C(=O)N(Cc1ccccc1Cl)[C@H]2c1ccc(CO)cc1"
Ans: 0.389

Q: Output measured z-score for this item: CCN(CC)c1ccc(N2CC=CC34O[C@@H]5C=CCCOC(=O)C5[C@H]3C(=O)N(CCCCCCO)[C@@H]4C2=O)cc1 (stereo not given in full)
Ans: -1.85

Q: Output measured z-score for this item: "C=CCN1C(=O)[C@]2(O[C@H](CCn3cc([C@H](O)c4ccccc4)nn3)[C@@H]([Si](C)(C)c3ccc(OC)cc3)[C@@H]2C)c2cc(N3CCC3=O)ccc21"
Ans: 2.37

Q: Output measured z-score for this item: "C=C(CCCC)/C(=C/C[C@@H](OC(=O)c1ccncc1)c1ccc(OCCO)cc1)c1cc(C(=O)OC)ccc1OC"
Ans: 2.32

Q: Output measured z-score for this item: "CN(C)C(=O)[C@@]1(CCS(=O)(=O)c2ccccc2)COC(c2ccc(OCCCO)cc2)=N1"
Ans: -0.562

Q: Output measured z-score for this item: "COc1ccc([Si](C)(C)[C@@H]2[C@@H](CCO)O[C@]3(C(=O)N(Cc4ccc(N(C=O)c5ccccc5)cc4)c4ccccc43)[C@H]2C)cc1"
Ans: 4.55

Q: Output measured z-score for this item: "CCCCCCc1nc(-c2ccc(OC)nc2)cc2c1[Si](C(C)C)(C(C)C)O[C@H]2c1ccccc1"
Ans: 0.773

Q: Output measured z-score for this item: "COc1cc(COC(C)=O)ccc1OC(C)=O"
Ans: 1.42

Q: Output measured z-score for this item: "COCCOC(=O)N1C(=O)[C@@]2(c3cc(C#Cc4ccc(OC)cc4)ccc31)[C@H](c1ccc(O)cc1)N1[C@H](c3ccccc3)[C@H](c3ccccc3)OC(=O)[C@H]1[C@@H]2C(=O)N1CCc2cc(OC)c(OC)cc2C1"
Ans: -1.42

Q: Output measured z-score for this item: "CC(C)NC(=O)[C@@H]1c2ccccc2C(=O)N(C2Cc3ccccc3C2)[C@H]1c1ccc(CO)cc1"
Ans: 0.441

Q: Output measured z-score for this item: "Cc1ccc(S[C@]2(C(=O)NC3CC3)CC(=O)N(Cc3ccccc3)[C@@H]2c2ccc(CO)cc2I)cc1"
Ans: 1.04

Q: Output measured z-score for this item: CC1(C)C2C=C(C(O)C3C=CC4C(=O)NC(=O)C4N3Nc3ccc(Cl)cc3Cl)C[C@@H]1C2 (stereo not given in full)
Ans: 1.19

Q: Output measured z-score for this item: [N-]=[N+]=Nc1ccccc1[C@H]1OC(c2ccc(OCCCO)cc2)=N[C@@]1(CCS(=O)(=O)c1ccccc1)C(=O)NCC(O)CO (stereo not given in full)
Ans: 0.848

Q: Output measured z-score for this item: "C#C[C@H](O[Si](C#Cc1ccc(Oc2ccccc2)cc1)(C(C)C)C(C)C)c1ccccc1"
Ans: 0.498

Q: Output measured z-score for this item: COc1cc2c(cc1O)C(C1CC1)N(Cc1sc3ccccc3c1Cl)CC2 (stereo not given)
Ans: -0.671

Q: Output measured z-score for this item: "COCCOC(=O)N1C(=O)[C@@]2(c3cc(C#CCCO)ccc31)[C@H](C(=O)N1CCCCCCC1)[C@H]1C(=O)O[C@H](c3ccccc3)[C@H](c3ccccc3)N1[C@@H]2c1ccc(OCCO)cc1"
Ans: -0.581

Q: Output measured z-score for this item: "C=CC(=C)[C@H]1Oc2ccccc2S(=O)(=O)N2CCC[C@@H]12"
Ans: 0.483

Q: Output measured z-score for this item: "C=C[C@H](CO)NS(=O)(=O)c1ccc(Br)cc1"
Ans: 0.643

Q: Output measured z-score for this item: "O=C1c2ccccc2[C@](Cc2ccccc2I)(C(=O)NCCN2CCOCC2)[C@H](c2ccc(CO)cc2)N1C1CCCCC1"
Ans: -0.168

Q: Output measured z-score for this item: "COc1ccccc1CN1C(=O)c2ccccc2[C@@H](C(=O)NC2CC2)[C@@H]1c1ccc(CO)cc1"
Ans: -0.709
